# assayed target: UniProt:P07477
# Sequence (P07477 whole entry): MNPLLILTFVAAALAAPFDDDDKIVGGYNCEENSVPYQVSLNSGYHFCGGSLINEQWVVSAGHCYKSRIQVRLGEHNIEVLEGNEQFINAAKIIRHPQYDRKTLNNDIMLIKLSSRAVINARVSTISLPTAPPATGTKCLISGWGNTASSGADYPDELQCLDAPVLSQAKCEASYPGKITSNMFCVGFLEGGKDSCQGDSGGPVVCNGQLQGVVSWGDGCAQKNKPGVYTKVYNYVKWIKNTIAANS
pIC50: −log10 of the molar value.
readout type: pIC50

Sample records with pIC50:
>  <molecule>
N=C(N)N1CCCC(C[C@H](NC(=O)CN2C(=O)CN(CCCc3ccc(O)cc3)C(=O)[C@H]2Cc2ccccc2)C(=O)c2nccs2)C1 (stereo partly specified)

>  <assayed target>
UniProt:P07477

>  <pIC50>
4.60

$$$$
>  <molecule>
Cc1ccc(CCCN2CC(=O)N(CC(=O)N[C@@H](CC3CCCN(C(=N)N)C3)C(=O)c3nccs3)[C@H](Cc3ccccc3)C2=O)cc1 (stereo partly specified)

>  <assayed target>
UniProt:P07477

>  <pIC50>
5.39

$$$$
>  <molecule>
N=C(N)N1CCCC(C[C@H](NC(=O)CN2C(=O)CN(CCCc3ccccc3)C(=O)[C@H]2Cc2ccccc2)C(=O)N2CCCC2)C1 (stereo partly specified)

>  <assayed target>
UniProt:P07477

>  <pIC50>
5.06

$$$$
>  <molecule>
N=C(N)N1CCCC(C[C@H](NC(=O)CN2C(=O)CN(CCCc3ccc(Cl)c(Cl)c3)C(=O)[C@H]2Cc2ccccc2)C(=O)c2nccs2)C1 (stereo partly specified)

>  <assayed target>
UniProt:P07477

>  <pIC50>
5.14

$$$$
>  <molecule>
N=C(N)N1CCCC(C[C@H](NC(=O)CN2C(=O)CN(CCCc3ccccc3)C(=O)[C@H]2Cc2ccc(Cl)cc2)C(=O)c2nccs2)C1 (stereo partly specified)

>  <assayed target>
UniProt:P07477

>  <pIC50>
4.77

$$$$
>  <molecule>
COc1ccc(CCCN2CC(=O)N(CC(=O)N[C@@H](CC3CCCN(C(=N)N)C3)C(=O)c3nccs3)[C@H](Cc3ccccc3)C2=O)cc1 (stereo partly specified)

>  <assayed target>
UniProt:P07477

>  <pIC50>
4.85

$$$$

(1) N=C(N)N1CCCC(C[C@H](NC(=O)CN2C(=O)CN(CCCc3ccccc3)C(=O)[C@H]2Cc2ccc3ccccc3c2)C(=O)c2nccs2)C1 (stereo partly specified)
(2) C[C@@H]1C(=O)N(CCCc2ccccc2)CC(=O)N1CC(=O)N[C@@H](C[C@@H]1CCCN(C(=N)N)C1)C(=O)c1nccs1
(3) N=C(N)N1CCCC(C[C@H](NC(=O)CN2C(=O)CN(CCCc3ccc([N+](=O)[O-])cc3)C(=O)[C@H]2Cc2ccccc2)C(=O)c2nccs2)C1 (stereo partly specified)
(4) N=C(N)NCCC[C@H](NC(=O)CN1C(=O)CN(CCCc2ccccc2)C(=O)[C@H]1Cc1ccccc1)C(=O)c1nccs1
(5) N=C(N)N1CCCC(C[C@H](NC(=O)CN2C(=O)CN(CCCc3ccccc3)C(=O)[C@H]2Cc2ccccc2)C(=O)c2nc3ccccc3s2)C1 (stereo partly specified)
Challenge: Please order the records by their reported pIC50, lowest number first. Answer format: list of labels, ordered as asked.
Response given: 1, 3, 5, 2, 4

These entries and their values trace back to ChEMBL document CHEMBL1132099.
